Listing of recorded cell viability by entry.
system: MOLM14; test: cell viability relative to vehicle control; higher = less cytotoxic; details: 10 µM; SRSF2 genotype: SRSF2 P95H/wt;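 further: after 48 h exposure read by CellTiter-Glo luminescence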
Counter-ions that a name gives are not always drawn.
Just the number please, in %, no unit attached.

1) O=S(=O)(Cl)c1ccc(-c2ccccc2)cc1 [Biphenyl-4-sulfonyl chloride] = 108
2) Cc1ccccc1N1CCN(CCc2nnc3n2CCCC3)CC1 [Dapiprazole Hydrochloride] = 97
3) C[C@H]1[C@H](C)CC[C@]2(C(=O)O)CC[C@]3(C)C(=CC[C@@H]4[C@@]5(C)C[C@@H](O)[C@H](O)C(C)(C)[C@@H]5CC[C@]43C)[C@H]12 [Corosolic acid] = 97.3
4) CCCC(=O)Nc1ccc(OCC(O)CNC(C)C)c(C(C)=O)c1 (stereo not drawn) [Acebutolol HCl] = 92.4
5) C[C@@]1(c2cc(-c3cncnc3)c(F)cc2F)CCSC(N)=N1 = 92.2

Request: Looking for the measured cell viability of O=C1Nc2ccc(I)cc2C1=Cc1cc(Br)c(O)c(Br)c1 , can you help?
Response: 84.7

Request: Param item: COc1cc(CCC(C)=O)ccc1O [Vanillylacetone]
Response: 101
